Attribution: patent US4102994A

// MIC lookup, one value per entry
- Test system: T. mentagrophytes
- method_description: Test tube serial dilution test (minimal inhibitory concentration)
- Type: cell-based, Trichophyton mentogrophytes
- run_parameters: Trichophyton mentagrophytes; T. mentagrophytes; broth serial dilution; read-out: Minimum Inhibitory Concentration
# number only, unit mg/L dropped from output

Would you please look over these solved cases?
> print(dat)
                                   compound                tgt  observable  units.symbol  value
1  CCCCCCCCCCCC[N+](C)(C)CCCNC(=O)C12CC3CC(CC(C3)C1)C2 [Comp.9]  T. mentagrophytes         MIC          mg/L   12.5
2  CCCCCCCCCC[N+](C)(C)CCCNC(=O)CCCCCCC.[I-] [Comp.3]  T. mentagrophytes         MIC          mg/L   12.5
3  CCCCCCCC[N+](CC)(CC)CCNC(=O)C12CC3CC(CC(C3)C1)C2 [R^4 =C8 H17, reference compound]  T. mentagrophytes         MIC          mg/L     50

Below: the item to evaluate.
Missing value: MIC, T. mentagrophytes, entry CCCCCC[N+](CC)(CC)CCNC(=O)C12CC3CC(CC(C3)C1)C2 [R^4 =C6 H13, reference compound] . Fill in? 50

====

- System: S. aureus
- method_description: Test tube serial dilution test (minimal inhibitory concentration)
- Type: cell-based
- run_parameters: Staphylococcus aureus; S. aureus; broth serial dilution; read-out: Minimum Inhibitory Concentration
Field: label. Allowed values: 1 (yes) (MIC < 2 µg/mL) or 0 (no) (MIC >= 2 µg/mL).

> print(dat)
                                   molecule        tgt  assigned.class
1  CCCCCCCC[N+](CC)(CC)CCNC(=O)C12CC3CC(CC(C3)C1)C2 [R^4 =C8 H17, reference compound]  S. aureus          0 (no)
2  CCCCCCCCCCCCCC[N+](C)(C)CCCNC(=O)C1CC2CCC1C2 (centres unmarked) [Comp.16]  S. aureus         1 (yes)
3  CCCCCCCCCCCC[N+](CC)(CC)CCNC(=O)C12CC3CC(CC(C3)C1)C2 [R^4 =C12 H25]  S. aureus         1 (yes)
4  CCCC[N+](CC)(CC)CCNC(=O)C12CC3CC(CC(C3)C1)C2 [R^4 =C4 H9, reference compound]  S. aureus          0 (no)
5  CCCCCCCCCCCC[N+](C)(C)CCCNC(=O)C12CC3CC(CC(C3)C1)C2 [Comp.9]  S. aureus         1 (yes)

Just wondering, is MIC of CCCCCCCCCCCCCC[N+](C)(C)CCCNC(=O)C12CC3CC(CC(C3)C1)C2 [Comp.10] below 2 µg/mL? 1 (yes)

Just wondering, is MIC of CCCCCCCCCCCCCC[N+](C)(C)CCCNC(=O)[C@H]1CC[C@@H]2CCC[C@@H]21 (relative stereo) [Comp.14] below 2 µg/mL? 1 (yes)

Just wondering, is MIC of CCCCCCCCCC[N+](CC)(CC)CCNC(=O)C12CC3CC(CC(C3)C1)C2 [R^4 =C10 H21] below 2 µg/mL? 0 (no)

====

- Test system: E. coli
- method_description: Test tube serial dilution test (minimal inhibitory concentration)
- Type: cell-based
- run_parameters: Escherichia coli; Table III, no quantity or unit printed in the table; minimal inhibitory concentration in ppm; read-out: antimicrobial results, E.coli (Table III)
// MIC lookup, one value per entry
# number only, unit µg/mL dropped from output

Would you please look over these solved cases?
> print(dat)
                                   compound      tgt  value
1  CCCCCCCCCCCCCC[N+](C)(C)CCCNC(=O)CCCCCCC.[Cl-]  E. coli     50
2  CCCCCCCCCCCC(=O)NCCC[N+](C)(C)C [R C11, R^4 C1, X I, reference compound]  E. coli     50
3  CCCCCCCCCCCCCC[N+](C)(C)CCCNC(=O)CCCCCCCCC.[Cl-]  E. coli    100
4  CCCCCCCCCCCCCC[N+](C)(C)CCCNC(=O)CCCCCCCC.[Cl-]  E. coli    100
5  CCCCCCCCCCCCCC[N+](C)(C)CCCNC(=O)CCCCCCCCCCC.[Cl-]  E. coli    100

Quick one: MIC of CCCCCCCCCCCC[N+](C)(C)CCCNC(=O)CCCCCCCC ? 12.5

Quick one: MIC of CCCCCCCCCCCC[N+](C)(C)CCCNC(=O)C(CC)CCCC (centres unmarked) ? 50

Quick one: MIC of CCCCCCCCCCCCCC[N+](C)(C)CCCNC(=O)C(CC)CCCC (centres unmarked) ? 50

====

- Test system: T. mentagrophytes
- method_description: Test tube serial dilution test (minimal inhibitory concentration)
- Assay type: cell-based, Trichophyton mentogrophytes
- run_parameters: Trichophyton mentagrophytes; T. mentagrophytes; broth serial dilution; read-out: Minimum Inhibitory Concentration
// MIC lookup, one value per entry
# number only, unit µg/mL dropped from output

> print(dat)
                                   compound                tgt  observable  value
1  CCCCCCCCCCCCCC[N+](C)(C)CCCNC(=O)C1CC2CCC1C2 (stereo not drawn) [Comp.16]  T. mentagrophytes         MIC   6.25
2  CCCCCCCCCCCC[N+](CC)(CC)CCNC(=O)C12CC3CC(CC(C3)C1)C2 [R^4 =C12 H25]  T. mentagrophytes         MIC   3.12

Quick one: MIC of CCCCCCCCCCCCCC[N+](C)(C)CCCNC(=O)C12CC3CC(CC(C3)C1)C2 [Comp.10] ? 25

====

- System: Str. mitis
- method_description: Test tube serial dilution test (minimal inhibitory concentration)
- Type: cell-based
- run_parameters: Streptococcus mitis; Table III, no quantity or unit printed in the table; minimal inhibitory concentration in ppm; read-out: antimicrobial results, S.mitis (Table III)
// MIC lookup, one value per entry
# number only, unit µg/mL dropped from output

> print(dat)
                                   compound  value
1  CCCCCCCCCCCC(=O)NCCC[N+](C)(C)C [R C11, R^4 C1, X I, reference compound]     50

Quick one: MIC of CCCCCCCCCCCCCC[N+](C)(C)CCCNC(=O)C(CC)CCCC (centres unmarked) [R *C7 (branch), R^4 C14, X Cl] ? 1.56

Quick one: MIC of CCCCCCCCCCCCCC[N+](C)(C)CCCNC(=O)CCCCCCCCC.[Cl-] [R C9, R^4 C14, X Cl] ? 6.25

Quick one: MIC of CCCCCCCCCCCC[N+](C)(C)CCCNC(=O)CCCCCCCC [R C8, R^4 C12, X I] ? 1.56

====

// MIC lookup, one value per entry
- Test system: T. mentagrophytes
- method_description: Test tube serial dilution test (minimal inhibitory concentration)
- Format: cell-based, Trichophyton mentogrophytes
- run_parameters: Trichophyton mentagrophytes; T. mentagrophytes; broth serial dilution; read-out: Minimum Inhibitory Concentration
# number only, unit mg/L dropped from output

Would you please look over these solved cases?
> print(dat)
                                   molecule  observable  value
1  CCCC[N+](CC)(CC)CCNC(=O)C12CC3CC(CC(C3)C1)C2 [R^4 =C4 H9, reference compound]         MIC     50
2  CCCCCCCCCC[N+](CC)(CC)CCNC(=O)C12CC3CC(CC(C3)C1)C2 [R^4 =C10 H21]         MIC     50
3  CCCCCCCCCCCC[N+](C)(C)CCCNC(=O)[C@H]1CC[C@@H]2CCC[C@@H]21 (relative stereo) [Comp.15]         MIC   6.25

Below: the item to evaluate.
Missing value: MIC, T. mentagrophytes, entry CCCCCCCCCCCCCC[N+](C)(C)CCCNC(=O)[C@H]1CC[C@@H]2CCC[C@@H]21 (relative stereo) [Comp.14] . Fill in? 3.12

====

- Test system: S. aureus
- method_description: Test tube serial dilution test (minimal inhibitory concentration)
- Format: cell-based
- run_parameters: Staphylococcus aureus; S. aureus; broth serial dilution; read-out: Minimum Inhibitory Concentration
// MIC lookup, one value per entry
Give your result as the value with the unit written after it.

> print(dat)
                                   compound       value
1  CCCCCCCCCCCC[N+](C)(C)CCCNC(=O)[C@H]1CC[C@@H]2CCC[C@@H]21 (relative stereo) [Comp.15]  1.56 µg/mL
2  CCCCCCCCCC[N+](C)(C)CCCNC(=O)CCCCCCC.[I-] [Comp.3]  12.5 µg/mL

Quick one: MIC of CCCCCC[N+](CC)(CC)CCNC(=O)C12CC3CC(CC(C3)C1)C2 [R^4 =C6 H13, reference compound] ? 100 µg/mL
